- tested system: MAPK14 (UniProt Q16539)
- Sequence (Q16539 whole entry, looked up): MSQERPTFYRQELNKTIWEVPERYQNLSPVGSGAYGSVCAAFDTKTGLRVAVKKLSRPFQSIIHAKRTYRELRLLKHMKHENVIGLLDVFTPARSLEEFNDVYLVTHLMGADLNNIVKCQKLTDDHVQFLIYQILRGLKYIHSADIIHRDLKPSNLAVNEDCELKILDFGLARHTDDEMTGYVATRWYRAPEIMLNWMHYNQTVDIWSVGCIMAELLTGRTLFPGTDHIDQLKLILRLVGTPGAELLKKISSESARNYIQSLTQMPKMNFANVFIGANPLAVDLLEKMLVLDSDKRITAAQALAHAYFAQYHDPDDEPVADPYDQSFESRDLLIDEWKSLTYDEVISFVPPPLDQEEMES
pIC50: −log10 of the molar value.
value kind: pIC50

1. CC(C)(C)c1cc(C(=O)Nc2ccc(F)c(COc3cnccn3)c2)cc(C(C)(C)C)c1
> 5.70

Please supply pIC50 for each of the following items, keeping them in order.
1. CC(C)(C)c1cc(NC(=O)Nc2ccc(F)c(COc3cnccn3)c2)n(-c2ccc(F)cc2F)n1
2. O=C(Nc1cnc(OCc2c(Cl)cccc2Cl)cn1)N1CCOCC1
3. Cc1cc(-n2nc(C(C)(C)C)cc2NC(=O)Nc2ccc(F)c(COc3cnccn3)c2)nc(C)n1
4. O=C(Nc1ccc(F)c(COc2cnccn2)c1)Nc1ncc(-c2ccc(Cl)cc2)s1
5. Nc1ncccc1OCn1nnc2ccccc21

Result:
1: > 5.70; 2: > 5.70; 3: > 5.70; 4: > 3.70; 5: > 3.00

Return reported pIC50 values for all items listed beneath this line.
1. O=C(CN1CCOCC1)Nc1cnc(OCc2c(Cl)cccc2Cl)cn1
2. CC(C)(C)c1ccc2[nH]cc(CC(=O)Nc3ccc(F)c(COc4cnccn4)c3)c2c1
3. CC(C)(Cc1ccncc1)NC(=O)c1cnc(OCc2c(Cl)cccc2Cl)cn1
4. Nc1ncccc1OCc1c(F)cc(F)cc1F
5. Cc1nc(-c2cc(C(=O)Nc3ccc(F)c(COc4cnccn4)c3)no2)cs1
6. O=C(Nc1ccc(Cl)c(COc2cnccn2)c1)c1cc(F)cc(N2CCOCC2)c1

Result:
> 3.70
> 3.70
> 4.70
> 3.00
> 3.70
> 5.70

Look at each compound and report its pIC50.
1. CSc1nnc(NC(=O)Nc2ccc(F)c(COc3cnccn3)c2)s1
2. O=C1c2ccccc2CN1c1ccc(F)c(COc2cccnc2)c1

Result:
1. > 3.70
2. > 3.00

Look up pIC50 for the entries below, preserving their order.
1. CC(C)(C)c1cc(NC(=O)Nc2ccc(Cl)c(COc3cccnc3)c2)n(-c2ccccc2)n1
2. CN1CCN(CC(=O)Nc2cnc(OCc3c(Cl)cccc3Cl)cn2)CC1
3. O=C(Nc1ccccc1)C(=O)Nc1ccc(Cl)c(COc2cccnc2)c1
4. O=C1c2ccccc2C(=O)N1c1ccc(Cl)c(COc2cccnc2)c1
5. Cc1noc(-c2ccccc2)c1C(=O)Nc1ccc(F)c(COc2cnccn2)c1

Result:
["> 5.70", "> 4.70", "> 5.70", "> 3.00", "> 3.70"]

* * *

Notes on IC50 obtained with MAPK14 (UniProt Q16539).

Use the examples below as a reference point.
1) Nc1ncc(OCc2cccc3ccccc23)nc1Br
< 1000 µM
2) Nc1cnc(OCc2ccccc2)cn1
< 1000 µM
3) O=C(Nc1ccc(F)c(COc2cnccn2)c1)Nc1cc(-c2ccc(Cl)cc2)nn1-c1ccccc1
< 2 µM
4) O=C(Nc1ccc(Cl)c(COc2cccnc2)c1)c1cccc(C(F)(F)F)c1
< 20 µM
5) O=C(Nc1ccc(F)c(COc2cnccn2)c1)c1ccc(=O)n(Cc2ccccc2)c1
< 20 µM
6) CC(C)(C)c1cc(NC(=O)Nc2ccc(Cl)c(COc3cnccn3)c2)[nH]n1
< 20 µM
7) O=C(Nc1ccc(Cl)c(COc2cccnc2)c1)c1ccccc1
< 20 µM
8) CC(C)(C)c1ccccc1NC(=O)Nc1ccc(F)c(COc2cccnc2)c1
< 20 µM

Please state IC50 for every molecule in the list that follows.
1. Nc1ncccc1OCc1ccccc1CS(=O)(=O)c1ccccc1
2. Cc1cc(C)cc(COc2cccnc2N)c1
3. O=C(Nc1ccc(F)c(COc2cnccn2)c1)Nc1cc(-c2ccccc2)[nH]n1

Result:
< 1000 µM
< 200 µM
< 2 µM

* * *

Target or system UniProt:Q16539: recorded IC50 listed per item.

Previously resolved entries follow.
1) Cc1nc2sccn2c1C(=O)Nc1ccc(F)c(COc2cnccn2)c1
< 2 µM
2) CC(C)(C)C(=O)Nc1cnc(OCc2c(Cl)cccc2Cl)cn1
< 200 µM
3) CC(C)(C)c1cc(NC(=O)Nc2ccc(F)c(COc3cnccn3)c2)n(-c2ccc(S(C)(=O)=O)cc2)n1
< 2 µM
4) CC(C)(CO)NC(=O)Nc1cnc(OCc2c(Cl)cccc2Cl)cn1
< 2 µM
5) CC(C)(CO)C(=O)Nc1cnc(OCc2c(Cl)cccc2Cl)cn1
< 200 µM
6) Nc1ncccc1OCc1cccc(Cl)c1F
< 1000 µM

Count: 5. Required value per item: IC50.
1. Cc1ccc2ccccc2c1COc1cccnc1N
2. O=C(Nc1ccc(F)c(COc2cccnc2)c1)c1cncc(N2CCOCC2)n1
3. c1cc(COc2cccnc2)cc(COc2cccnc2)c1
4. O=C(Nc1ccc(F)c(COc2cnccn2)c1)Nc1nnc(C2CCCO2)s1 (stereo not given)
5. CC(C)(C)c1ccc(C(=O)Nc2ccc(F)c(COc3cnccn3)c2)cc1

Result:
< 100 µM
< 20 µM
< 1000 µM
< 2 µM
< 20 µM

Respectfully, I request IC50 for each entry included below.
1. Nc1ncccc1OCc1cccc(-c2ccccc2)c1
2. Cc1ccc(-n2nc(C(C)(C)C)cc2NC(=O)Nc2ccc(F)c(COc3cnccn3)c2)cc1
3. O=C(Nc1ccc(F)c(COc2cccnc2)c1)c1ccccc1
4. CC(C)(C)c1cc(NC(=O)Nc2ccc(F)c(COc3cnccn3)c2)n(-c2ccncc2)n1

Result:
1: < 200 µM; 2: < 2 µM; 3: < 200 µM; 4: < 2 µM

* * *

For each of the compounds below, state its IC50.
- tested system: UniProt:Q16539

The cases that follow already have their IC50 on record.
1) CC(C)(C)c1cc(NC(=O)Nc2ccc(F)c(COc3cnccn3)c2)n(-c2ccc(Cl)cc2)n1
< 2 µM
2) O=C1c2ccccc2C(O)N1c1ccc(Cl)c(COc2cccnc2)c1 (stereo not given)
< 200 µM
3) O=C(Nc1ccc(F)c(COc2cnccn2)c1)Nc1cc(C2CCCO2)nn1-c1ccc(F)cc1 (stereo not given)
< 2 µM
4) CC(C)(C)c1cc(C(=O)Nc2ccc(F)c(COc3cnccn3)c2)n(Cc2ccccc2)n1
< 20 µM
5) NS(=O)(=O)CCNC(=O)c1cnc(OCc2c(Cl)cccc2Cl)cn1
< 1000 µM

For each of the compounds below, note its IC50.
1. CC(C)(C)c1csc(NC(=O)Nc2ccc(F)c(COc3cnccn3)c2)n1
2. O=C(Nc1cccc(COc2cccnc2)c1)c1ccccc1
3. c1ccc(CNc2cccc(COc3cnccn3)c2)cc1
4. O=C(Nc1ccccc1)Nc1ccc(Cl)c(COc2cccnc2)c1
5. O=C(Nc1ccccc1)Oc1cccc(COc2cnccn2)c1
6. Nc1ncccc1OCc1ccccc1-c1ccccc1
7. CC(C)(CO)NC(=O)c1cnc(OCc2c(Cl)cccc2Cl)cn1

Result:
< 20 µM
< 200 µM
< 1000 µM
< 20 µM
< 200 µM
< 10 µM
< 20 µM

Value sought for every listed compound: IC50.
1. OCCNc1cnc(OCc2c(Cl)cccc2Cl)cn1
2. O=C(Nc1ccc(F)c(COc2cnccn2)c1)Nc1cc(-c2ccccc2)nn1-c1ccccc1
3. NC(=O)Nc1ccc(Cl)c(COc2cccnc2)c1

Result:
1: < 200 µM; 2: < 2 µM; 3: < 20 µM

* * *

pIC50, MAPK14 (UniProt Q16539), per-entry values.
pIC50: −log10 of the molar value.

1) Nc1ncc(OCc2ccccc2)nc1Br
> 3.00

Please go through the list and note pIC50 for each molecule.
1. Nc1ncccc1OCc1cccc(C(=O)NCc2cccc3ccccc23)c1
2. CC(=O)Nc1ccc(Cl)c(COc2cccnc2)c1
3. CC(C)c1nnc(NC(=O)Nc2ccc(F)c(COc3cccnc3)c2)s1
4. O=C(Nc1ccc(Cl)c(COc2cccnc2)c1)c1cccc(F)c1

Result:
["> 3.00", "> 3.00", "> 4.70", "> 3.70"]

* * *

- tested system: MAPK14 (UniProt Q16539)
value kind: IC50

1) O=C(Nc1ccc(F)c(COc2cnccn2)c1)c1cc(On2nnc3ccccc32)nc(Cl)n1
< 1000 µM
2) CC(C)(C)c1ccc(-n2nc(C3CC3)cc2NC(=O)Nc2ccc(F)c(COc3cnccn3)c2)cc1
< 200 µM
3) Nc1ncccc1OCc1cc(NC(=O)c2ccccc2)ccc1Cl
< 20 µM
4) CC(C)(C)c1cc(NC(=O)Nc2ccc(F)c(COc3cnccn3)c2)n(-c2ccc(Cl)nn2)n1
< 2 µM
5) CC(C)(C)c1cc(NC(=O)Oc2cccc(COc3cnccn3)c2)n(-c2ccccc2)n1
< 200 µM

Please supply IC50 for each of the following items, keeping them in order.
1. Nc1ncccc1OCc1cccc(C(=O)NCC2CC2)c1
2. Clc1cccc(Cl)c1COc1cnccn1
3. O=C(Cn1ccnc1)Nc1cnc(OCc2c(Cl)cccc2Cl)cn1
4. CC(C)(C)n1nc(-c2ccccc2)cc1NC(=O)Nc1ccc(F)c(COc2cnccn2)c1
5. Nc1ncccc1OCc1ccc(F)c(F)c1

Result:
1: < 1000 µM; 2: < 200 µM; 3: < 20 µM; 4: < 20 µM; 5: < 1000 µM
